// data source = patent US11059842B2

- Tested on: T. cruzi (Tulahuen strain) infective form (trypomastigote and amastigote life stages) co-cultured in NIH-3T3 fibroblasts
- Assay summary: T. cruzi infective form growth inhibition in NIH-3T3 fibroblasts
- Assay type: cell-based, Trypanosoma cruzi
- Conditions used: Tulahuen strain infective form in NIH-3T3 fibroblasts; N = 3 (Amphotericin B control: 6 replicates)
Reported IC50 values for a set of compounds
Measured parameter: IC50 (µM)

- Cc1ccc(C(=O)N[C@H]2C(O)O[C@H](CO)[C@H](O)[C@@H]2O)o1 (some centres unmarked) [Compound 16]: 20.2
- O=C(N[C@H]1C(O)O[C@H](CO)C(O)[C@@H]1O)c1ccoc1 (some centres unmarked) [Compound 6]: 49.9
- O=C(N[C@H]1C(O)O[C@H](CO)[C@@H](O)[C@@H]1O)c1ccc(CCl)cc1 (some centres unmarked) [Compound 3]: 52.9
- C[C@@H]1[C@H](O)[C@@H](C)/C=C/C=C/C=C/C=C/C=C/C=C/C=C/[C@H](O[C@@H]2O[C@H](C)[C@@H](O)[C@H](N)[C@@H]2O)C[C@@H]2O[C@](O)(C[C@@H](O)C[C@@H](O)[C@H](O)CC[C@@H](O)C[C@@H](O)CC(=O)O[C@H]1C)C[C@H](O)[C@H]2C(=O)O [Amphotericin B, reference compound]: 1.08
- O=C(N[C@@H]1C(O)O[C@H](CO)[C@@H](O)[C@@H]1O)c1cccc(Br)c1 (some centres unmarked) [Compound 8]: 38.4
- O=C(N[C@H]1C(O)O[C@H](CO)[C@H](O)[C@@H]1O)c1cccc(Br)c1 (some centres unmarked) [Compound 14]: 19.9
- O=C(N[C@H]1C(O)O[C@H](CO)[C@H](O)[C@@H]1O)c1ccccc1 (some centres unmarked) [Compound 13]: 55.3
- O=C(N[C@H]1C(O)O[C@H](CO)[C@H](O)[C@@H]1O)c1cc2ccccc2o1 (some centres unmarked) [Compound 17]: 66.6
